Test system: NCI-H322M multicellular tumor spheroids, viability (% test/control)
Test: Anticancer human tumor NCI-H322M cell line growth inhibition;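 also: spheroids exposed to compound for seven days before readout; 100% = DMSO vehicle control wells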
Details: second compound 0.003 µM; first compound 0.0316 µM; stronger effect = lower value
Protocol: Multicellular complex tumor spheroid response to DNA repair inhibitors in combination with DNA-damaging drugs This study explores the anticancer activities of DNA-damaging drugs and inhibitors of DNA damage repair, both as single agents and in combinations. […] Twenty-six patient-derived or established malignant cell lines were evaluated representing sarcoma, melanoma, small cell lung cancer (SCLC), non-small cell lung cancer (NSCLC), as well as bladder, ovarian and pancreatic cancers. […]
# y = viability, T/C below 6% (exclusive); n = viability, T/C at/above 6%

- COMPOUND: "Cc1cc(C)c(CNC(=O)c2cc(-c3ccc(CN4CCOCC4)cc3)cc3c2cnn3C2CCCC2)c(=O)[nH]1 + CC[C@@]1(O)C(=O)OCc2c1cc1n(c2=O)Cc2cc3c(CN(C)C)c(O)ccc3nc2-1"
  GROUP: "n"
- COMPOUND: "COc1ccc([C@@H](O)c2cc(-c3ncnc4cc(N5CCOCC5)ccc34)c(F)cc2Cl)nn1 + CC[C@@]1(O)C(=O)OCc2c1cc1n(c2=O)Cc2cc3c(CN(C)C)c(O)ccc3nc2-1"
  GROUP: "n"
- COMPOUND: "CC(C)n1c(=O)n(C)c2cnc3cc(F)c(-c4ccc(OCCCN5CCCCC5)nc4)cc3c21 + CC[C@@]1(O)C(=O)OCc2c1cc1n(c2=O)Cc2cc3c(CN(C)C)c(O)ccc3nc2-1"
  GROUP: "n"
- COMPOUND: "CC(C)n1c(=O)n(C)c2cnc3cc(F)c(-c4ccc(OCCCN5CCCCC5)nc4)cc3c21 + COc1cc2c(cc1O)CCNC21CSC2c3c(OC(C)=O)c(C)c4c(c3C(COC1=O)N1C(O)C3Cc5cc(C)c(OC)c(O)c5C(C21)N3C)OCO4"
  GROUP: "y"

###

System: NCI-H322M multicellular tumor spheroids, viability (% test/control)
Assay: Anticancer human tumor NCI-H322M cell line growth inhibition;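 also: spheroids exposed to compound for seven days before readout; 100% = DMSO vehicle control wells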
Conditions: second compound 3.16 µM; first compound 0.316 µM; stronger effect = lower value

- MOLECULE: "COc1ccc([C@@H](O)c2cc(-c3ncnc4cc(N5CCOCC5)ccc34)c(F)cc2Cl)nn1 + Cn1nnc2c(C(N)=O)ncn2c1=O"
  TEST_TARGET: "NCI-H322M multicellular tumor spheroids, viability (% test/control)"
  viability, T/C (%): 81.2
- MOLECULE: "[2H]c1nc(C)nc([2H])c1-c1cc(NC[C@@H](C)c2cccc3c(C(=O)NC)ccnc23)ncn1 + Cn1nnc2c(C(N)=O)ncn2c1=O"
  TEST_TARGET: "NCI-H322M multicellular tumor spheroids, viability (% test/control)"
  viability, T/C (%): 94
- MOLECULE: "CC(C)n1c(=O)n(C)c2cnc3cc(F)c(-c4ccc(OCCCN5CCCCC5)nc4)cc3c21 + Cn1nnc2c(C(N)=O)ncn2c1=O"
  TEST_TARGET: "NCI-H322M multicellular tumor spheroids, viability (% test/control)"
  viability, T/C (%): 83.1
- MOLECULE: "Cc1cc(C)c(CNC(=O)c2cc(-c3ccc(CN4CCOCC4)cc3)cc3c2cnn3C2CCCC2)c(=O)[nH]1 + Cn1nnc2c(C(N)=O)ncn2c1=O"
  TEST_TARGET: "NCI-H322M multicellular tumor spheroids, viability (% test/control)"
  viability, T/C (%): 103
- MOLECULE: "COc1cc(C)[nH]c(=O)c1CN1CCc2c(Cl)cc(C(OC)C3COC3)c(Cl)c2C1=O (stereo unspecified) + Cn1nnc2c(C(N)=O)ncn2c1=O"
  TEST_TARGET: "NCI-H322M multicellular tumor spheroids, viability (% test/control)"
  viability, T/C (%): 97.4
- MOLECULE: "CC1COCCN1c1cc(-c2ccnn2C)c2ccnc(-c3ccn[nH]3)c2n1 (stereo unspecified) + Cn1nnc2c(C(N)=O)ncn2c1=O"
  TEST_TARGET: "NCI-H322M multicellular tumor spheroids, viability (% test/control)"
  viability, T/C (%): 42.3

Origin of the recorded values: PubChem BioAssay AID1845211
